# Test system: K562
# test name: Modulation factor: IC50(DOX alone)/IC50(DOX+modulator)
# Format: functional, Homo sapiens
outcome measure: Modulation factor
# respond with the number and nothing more

Request: Give its Modulation factor value. Item: `COc1ccc(-c2cc(=O)c3c(O)cc(OCC(=O)N4CCN(Cc5ccc(OC)c(OC)c5OC)CC4)cc3o2)cc1O`
Result: 11

Request: Give its Modulation factor value. Item: `CCOC(=O)COc1cc(-c2cc(=O)c3c(O)cc(OCC(=O)N4CCN(Cc5ccc(Cl)cc5)CC4)cc3o2)ccc1OC`
Result: 4

Request: Give its Modulation factor value. Item: `CCOC(=O)COc1cc(-c2cc(=O)c3c(O)cc(OCC(=O)N4CCN(Cc5cc(OC)c(OC)c(OC)c5)CC4)cc3o2)ccc1OC`
Result: 3

Request: Give its Modulation factor value. Item: `CCOC(=O)COc1cc(-c2cc(=O)c3c(O)cc(OCC(=O)N4CCN(Cc5ccc(OC)c(OC)c5)CC4)cc3o2)ccc1OC`
Result: 4

* * *

# test target: ATP-dependent translocase ABCB1 (Homo sapiens, UniProt P08183)
# Sequence (P08183 whole entry): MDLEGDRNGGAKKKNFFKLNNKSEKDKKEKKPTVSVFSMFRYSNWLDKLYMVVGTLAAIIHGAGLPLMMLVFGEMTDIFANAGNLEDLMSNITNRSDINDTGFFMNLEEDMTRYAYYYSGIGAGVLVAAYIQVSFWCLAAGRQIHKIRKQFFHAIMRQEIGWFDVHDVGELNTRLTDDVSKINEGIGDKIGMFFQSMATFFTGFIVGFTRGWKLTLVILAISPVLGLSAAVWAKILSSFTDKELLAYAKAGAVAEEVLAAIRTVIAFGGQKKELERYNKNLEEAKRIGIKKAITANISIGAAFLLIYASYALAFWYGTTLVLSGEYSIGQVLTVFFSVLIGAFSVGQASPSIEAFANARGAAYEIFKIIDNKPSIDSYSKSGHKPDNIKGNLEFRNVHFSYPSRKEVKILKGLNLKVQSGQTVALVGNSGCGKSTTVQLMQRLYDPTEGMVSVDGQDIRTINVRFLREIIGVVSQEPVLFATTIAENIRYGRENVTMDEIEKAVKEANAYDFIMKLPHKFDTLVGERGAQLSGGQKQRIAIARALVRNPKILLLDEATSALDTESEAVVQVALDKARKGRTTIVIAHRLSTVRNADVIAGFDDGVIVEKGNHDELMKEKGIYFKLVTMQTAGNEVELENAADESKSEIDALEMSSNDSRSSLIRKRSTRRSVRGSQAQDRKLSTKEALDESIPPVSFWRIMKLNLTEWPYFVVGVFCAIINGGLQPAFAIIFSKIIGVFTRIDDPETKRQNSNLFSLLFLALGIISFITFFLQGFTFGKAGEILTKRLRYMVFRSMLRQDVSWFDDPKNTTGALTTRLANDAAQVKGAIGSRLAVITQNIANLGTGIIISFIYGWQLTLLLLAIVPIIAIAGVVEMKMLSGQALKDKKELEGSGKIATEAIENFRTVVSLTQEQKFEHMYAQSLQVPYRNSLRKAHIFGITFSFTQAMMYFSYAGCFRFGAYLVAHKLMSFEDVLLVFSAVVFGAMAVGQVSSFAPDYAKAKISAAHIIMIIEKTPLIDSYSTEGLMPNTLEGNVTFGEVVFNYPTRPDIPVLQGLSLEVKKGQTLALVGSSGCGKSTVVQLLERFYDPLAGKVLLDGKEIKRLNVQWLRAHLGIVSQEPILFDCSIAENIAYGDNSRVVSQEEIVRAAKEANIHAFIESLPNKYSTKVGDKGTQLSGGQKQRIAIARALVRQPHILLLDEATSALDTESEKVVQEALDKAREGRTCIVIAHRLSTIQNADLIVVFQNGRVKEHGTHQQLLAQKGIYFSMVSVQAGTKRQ
# test name: Pgp transport inhibitory activity at 1 uM was measured by JC-1 accumulation assay method using JC-1 as substrate
# Type: functional
Below, each of the molecules is paired with its reported Relative JC-1 accumulation value.
# respond with the number and nothing more

1) COc1ccc(C2CC(=O)c3c(O)cc(OCC(=O)N4CCN(Cc5cccc(OC)c5OC)CC4)cc3O2)cc1O (stereo not drawn) :: 0
2) COc1ccc(C2CC(=O)c3c(OC(C)=O)cc(OCC(=O)N4CCN(Cc5ccc(OC)c(OC)c5OC)CC4)cc3O2)cc1OC(C)=O (stereo not drawn) :: 2
3) COc1ccc(-c2cc(=O)c3c(O)cc(OCC(=O)N4CCN(Cc5ccc(OC)c(OC)c5OC)CC4)cc3o2)cc1O :: 4

Request: Give its Relative JC-1 accumulation value. Item: `COc1ccc(-c2cc(=O)c3c(O)cc(O[C@@H]4O[C@H](CO)[C@H](O)[C@@H](O)[C@H]4O)cc3o2)cc1OCC(=O)N1CCN(Cc2ccc(OC)c(OC)c2OC)CC1`
Result: 0

Request: Give its Relative JC-1 accumulation value. Item: COc1ccc(C2CC(=O)c3c(O)cc(OCC(=O)N4CCN(Cc5ccc(OC)c(OC)c5)CC4)cc3O2)cc1O (stereo not drawn)
Result: 0

* * *

Below, each of the molecules is paired with its reported Relative JC-1 accumulation value.
# test target: ATP-dependent translocase ABCB1 (Homo sapiens)
# test name: Pgp transport inhibitory activity at 10 uM was measured by JC-1 accumulation assay method using JC-1 as substrate
# Assay type: functional
# respond with the number and nothing more

1) COc1ccc(CCC(=O)c2c(O)cc(OCC(=O)N3CCN(Cc4ccc(OC)c(OC)c4OC)CC3)cc2O)cc1O :: 5
2) COc1ccc(C2CC(=O)c3c(O)cc(OCC(=O)N4CCN(Cc5cc(OC)c(OC)c(OC)c5)CC4)cc3O2)cc1O (configuration not stated) :: 8
3) CCOC(=O)COc1cc(O)c2c(=O)cc(-c3ccc(OC)c(OCC(=O)N4CCN(Cc5ccc(OC)c(OC)c5)CC4)c3)oc2c1 :: 31
4) CCOC(=O)COc1cc(-c2cc(=O)c3c(O)cc(OCC(=O)N4CCN(Cc5cccc(OC)c5OC)CC4)cc3o2)ccc1OC :: 28
5) CCOC(=O)COc1cc(O)c2c(=O)cc(-c3ccc(OC)c(OCC(=O)N4CCN(Cc5ccccc5Cl)CC4)c3)oc2c1 :: 24

Request: Give its Relative JC-1 accumulation value. Item: `CCOC(=O)COc1cc(O)c2c(=O)cc(-c3ccc(OC)c(OCC(=O)N4CCN(Cc5ccc(OC)c(OC)c5OC)CC4)c3)oc2c1`
Result: 59

Request: Give its Relative JC-1 accumulation value. Item: `COc1ccc(-c2cc(=O)c3c(OCC(=O)N4CCN(Cc5ccc(OC)c(OC)c5OC)CC4)cc(O)cc3o2)cc1O`
Result: 0

These entries and their values trace back to ChEMBL document CHEMBL1132167.
